Quick reference: max response of the listed items.
system: NIH3T3; assay: Cytotoxic Profiling of Annotated Libraries Using Quantitative High-Throughput Screening (AID 1296008); conditions: Five cell lines viability, CellTiter-Glo ATP luminescence, 48-72 h; stronger effect = lower value; note: % is set by controls: 0 for no effect and ±100 for the full control effect; nearly all actives have a fitted effect of over 60% in size
Inconclusive results are not listed. Activity calls are given as the source filed them. Calls come from the whole dose curve; as a rule, active = well fitted inhibition curve with a large enough effect; inconclusive = small, poorly fitted or top-dose-only effect; inactive = flat fitted curve, though single readings scatter.
MEASURED_PROPERTY: max response

[[record]]
smi = "Cn1cc(-c2ccc3nnc(C(F)(F)c4ccc5ncccc5c4)n3n2)cn1"
measured_property = "max response"
recorded_result = "-35.7% (inactive)"

[[record]]
smi = "O=C(O)[C@@H](c1ccc(OCc2ccc3ccccc3n2)cc1)C1CCCC1"
measured_property = "max response"
recorded_result = "-0.267% (inactive)"

[[record]]
smi = "COCC(=O)NCC=Cc1ccc2ncnc(Nc3ccc(Oc4ccc(C)nc4)c(C)c3)c2c1"
measured_property = "max response"
recorded_result = "-10.3% (inactive)"

[[record]]
smi = "COc1ccc(-c2c(-c3ccc(O)cc3O)n[nH]c2C)cc1"
measured_property = "max response"
recorded_result = "-24.1% (inactive)"


* * *

test system: HEK293; assay: Cytotoxic Profiling of Annotated Libraries Using Quantitative High-Throughput Screening (AID 1296008); conditions: Five cell lines viability, CellTiter-Glo ATP luminescence, 48-72 h; stronger effect = lower value; note: % is set by controls: 0 for no effect and ±100 for the full control effect; nearly all actives have a fitted effect of over 60% in size
Records with an inconclusive call do not appear.
Quick reference: max response of the listed items.
MEASURED_PROPERTY: max response (%)

[[record]]
compound = "CCN(c1ccccc1)c1cc(NC)[n+](C)c(C)n1"
measured_property = "max response"
units = "%"
recorded_result = 1.35

[[record]]
compound = "Cn1cc(-c2ccc3nnc(C(F)(F)c4ccc5ncccc5c4)n3n2)cn1"
measured_property = "max response"
units = "%"
recorded_result = -1.08

[[record]]
compound = "CC1(C)SCCN(S(=O)(=O)c2ccc(OCC#CCO)cc2)[C@@H]1C(=O)NO"
measured_property = "max response"
units = "%"
recorded_result = -25.6

[[record]]
compound = "Cc1cnc(NC(=O)C2=C(O)c3ccccc3S(=O)(=O)N2C)s1"
measured_property = "max response"
units = "%"
recorded_result = -0.932

[[record]]
compound = "CCN(CC)CCCC(C)Nc1nc(C)cc(Nc2ccc3nc(C)cc(N)c3c2)n1 (configuration not stated)"
measured_property = "max response"
units = "%"
recorded_result = -11.7

[[record]]
compound = "Cc1[nH]c(=O)c(C#N)cc1-c1ccc2nccn2c1"
measured_property = "max response"
units = "%"
recorded_result = 3.47

[[record]]
compound = "Cc1c(C)c2c(c(C)c1O)CCC(C)(COc1ccc(CC3SC(=O)NC3=O)cc1)O2 (configuration not stated)"
measured_property = "max response"
units = "%"
recorded_result = -17

[[record]]
compound = "CCCCNc1cc(C(=O)O)cc(S(N)(=O)=O)c1Oc1ccccc1"
measured_property = "max response"
units = "%"
recorded_result = 2.91

[[record]]
compound = "C[C@]12CCC(=O)C=C1CC[C@@H]1[C@@H]2[C@@H](O)C[C@@]2(C)[C@H]1CC[C@]2(O)C(=O)CO"
measured_property = "max response"
units = "%"
recorded_result = -3.59

[[record]]
compound = "O=c1[nH]cnc2[nH]ncc12"
measured_property = "max response"
units = "%"
recorded_result = -10.4

[[record]]
compound = "CCOc1ccc(Cc2cc([C@@H]3O[C@H](CO)[C@@H](O)[C@H](O)[C@@H]3O)ccc2Cl)cc1"
measured_property = "max response"
units = "%"
recorded_result = 1.73

[[record]]
compound = "CS(=O)(=O)c1ccc(C(=O)Nc2ccc(Cl)c(-c3ccccn3)c2)c(Cl)c1"
measured_property = "max response"
units = "%"
recorded_result = -6.21

[[record]]
compound = "C[C@]12CC[C@H](O)CC1=CC[C@@H]1[C@H]2CC[C@]2(C)C(c3cccnc3)=CC[C@H]12"
measured_property = "max response"
units = "%"
recorded_result = -4.02

[[record]]
compound = "NCCc1ccc(O)c(O)c1"
measured_property = "max response"
units = "%"
recorded_result = -42.9

[[record]]
compound = "CC(C)(Sc1ccc(CCN(CCCCC2CCCCC2)C(=O)NC2CCCCC2)cc1)C(=O)O"
measured_property = "max response"
units = "%"
recorded_result = 4.49

[[record]]
compound = "COc1ccc(CC2=NN3C([C@@H](CCc4ccccc4)[C@@H](C)O)=NC(C)C3C(=O)N2)cc1OC (some centres not stated)"
measured_property = "max response"
units = "%"
recorded_result = -3.77

[[record]]
compound = "O=C(O)[C@@H](c1ccc(OCc2ccc3ccccc3n2)cc1)C1CCCC1"
measured_property = "max response"
units = "%"
recorded_result = -13

[[record]]
compound = "NC(=O)c1cnccn1"
measured_property = "max response"
units = "%"
recorded_result = -0.963

[[record]]
compound = "O=c1[nH]c(-c2ccc(C(F)(F)F)cc2)nc2c1CSCC2"
measured_property = "max response"
units = "%"
recorded_result = 1.09

[[record]]
compound = "CN(C(=O)c1ccc(F)cc1C(F)(F)F)C1CCN(c2nnc(-c3ccnn3C)c3ccccc23)CC1"
measured_property = "max response"
units = "%"
recorded_result = -60.8

[[record]]
compound = "CCOc1cc(C=C2C(=O)N(c3ccccc3)N=C2C)cc(Cl)c1OCC(=O)OC"
measured_property = "max response"
units = "%"
recorded_result = 0.832

[[record]]
compound = "NNCCc1ccccc1"
measured_property = "max response"
units = "%"
recorded_result = -15.3


* * *

test system: CASKI; assay: Primary qHTS to identify gynecologic anti-cancer compounds using libraries of approved drugs and bioactive compounds (AID 1345084); conditions: Gynecologic cancer cell panel viability, ATPlite luminescence, 48 h; series mostly up to 57.5 µM; note: nearly all actives have a fitted effect of over 55% in size
Inconclusive results are not listed. Activity calls are given as the source filed them. Calls follow the shape of the dose curve; as a rule, active = well fitted cell-killing curve with a large enough effect; inconclusive = small, poorly fitted or top-dose-only effect, or effect the other way; inactive = flat fitted curve, though single readings scatter.
Classes used: 1.0 = active, 0.0 = inactive

[[record]]
molecule = "Nc1nc2ccc(OC(F)(F)F)cc2s1"
assigned_label = 0.0

[[record]]
molecule = "CCOC(=O)N1CCC(=C2c3ccc(Cl)cc3CCc3cccnc32)CC1"
assigned_label = 0.0

[[record]]
molecule = "Cc1cnc(Nc2ccc(OCCN3CCCC3)cc2)nc1Nc1cccc(S(=O)(=O)NC(C)(C)C)c1"
assigned_label = 1.0

[[record]]
molecule = "CN(C)C(=O)c1ccc(S(=O)(=O)c2ccc(NC(=O)[C@@](C)(O)C(F)(F)F)c(Cl)c2)cc1"
assigned_label = 0.0

[[record]]
molecule = "Cc1[nH]c(=O)c(C#N)cc1-c1ccc2nccn2c1"
assigned_label = 0.0

[[record]]
molecule = "CC(C)OC(=O)C1=CN(C(=O)c2ccc(F)c(F)c2)CC(C)(C)c2c1[nH]c1ccccc21"
assigned_label = 0.0

[[record]]
molecule = "Cc1[nH]c(=O)c(C#N)cc1-c1ccncc1"
assigned_label = 0.0

[[record]]
molecule = "CC(C[N+](C)(C)C)OC(N)=O (stereo unspecified)"
assigned_label = 0.0

[[record]]
molecule = "NS(=O)(=O)c1cc2c(cc1Cl)NC=NS2(=O)=O"
assigned_label = 0.0

[[record]]
molecule = "O=C(Nc1ccc(F)c(C(F)(F)F)c1)Nc1nnc(-c2ccncc2)s1"
assigned_label = 0.0

[[record]]
molecule = "N#CC[C@H](C1CCCC1)n1cc(-c2ncnc3[nH]ccc23)cn1"
assigned_label = 0.0


* * *

molecular target: Muscarinic acetylcholine receptor M1 (Rattus norvegicus) (UniProt P08482); test: qHTS Assay for Antagonists of Acetylcholine Muscarinic M1 Receptor: Kinetic Measurement of Intracellular Calcium Response (AID 943); settings: M1-expressing cells, kinetic intracellular calcium fluorescence; series mostly up to 35.3 µM; note: nearly all actives have a fitted effect of over 75% in size
Sequence (P08482 whole entry, looked up): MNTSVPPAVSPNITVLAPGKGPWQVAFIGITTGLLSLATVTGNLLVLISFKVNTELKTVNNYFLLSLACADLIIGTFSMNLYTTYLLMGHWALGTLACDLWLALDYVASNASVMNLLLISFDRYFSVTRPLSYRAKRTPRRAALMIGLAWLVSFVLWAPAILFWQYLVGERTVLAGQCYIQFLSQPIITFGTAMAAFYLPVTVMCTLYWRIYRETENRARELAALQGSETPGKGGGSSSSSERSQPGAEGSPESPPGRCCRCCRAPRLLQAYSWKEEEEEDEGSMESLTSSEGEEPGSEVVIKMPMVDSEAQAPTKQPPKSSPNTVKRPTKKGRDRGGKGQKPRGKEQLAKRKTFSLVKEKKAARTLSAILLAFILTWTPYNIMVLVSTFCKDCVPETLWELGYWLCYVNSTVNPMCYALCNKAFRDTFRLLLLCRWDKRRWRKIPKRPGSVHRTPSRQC
Results filed as inconclusive are left out. Calls of active or inactive are those of the source. The call rests on the fitted dose curve; in most records, active means well fitted inhibition curve with a large enough effect; inconclusive means small, poorly fitted or top-dose-only effect; inactive means no such curve, though single readings can be large or run the other way.
Classes used: active, inactive

[[record]]
compound = "OC(CN1CCC(Cc2ccc(F)cc2)CC1)c1ccc(Cl)cc1 (centres undefined)"
assigned_label = "active"

[[record]]
compound = "CNC[C@H](O)c1cccc(O)c1"
assigned_label = "inactive"

[[record]]
compound = "NCCc1ccc(O)c(O)c1"
assigned_label = "inactive"

[[record]]
compound = "C1COC(NC(C2CC2)C2CC2)=N1"
assigned_label = "inactive"


* * *

test: qHTS Assay for Identification of Small Molecule Antagonists for NFkB Signaling Pathway. (AID 624479); settings: NFkB pathway reporter cell assay, antagonist mode; series mostly up to 38.3 µM;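 note: pathway stimulated with TNF alpha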; note: potency is the fitted concentration of half-maximal effect
Activity calls are given as the source filed them. Calls follow the shape of the full dose curve.
MEASURED_PROPERTY: Potency

[[record]]
molecule = "COc1cc(Nc2ncc3c(n2)-c2ccc(Cl)cc2C(c2c(F)cccc2OC)=NC3)ccc1C(=O)O"
recorded_result = "inactive"

[[record]]
molecule = "CC1(C)Cc2c(-c3ccccc3)c(-c3ccc(Cl)cc3)c(CC(=O)O)n2C1"
recorded_result = "21.1 µM (active)"

[[record]]
molecule = "CCC(C)N(C)C(=O)c1cc2ccccc2c(-c2ccccc2Cl)n1 (stereo not given)"
recorded_result = "inactive"

[[record]]
molecule = "CNC(=O)c1ccccc1Sc1ccc2c(/C=C/c3ccccn3)n[nH]c2c1"
recorded_result = "inactive"

[[record]]
molecule = "Cc1cc(Nc2nc(N[C@@H](C)c3ncc(F)cn3)ncc2Cl)n[nH]1"
recorded_result = "inactive"

[[record]]
molecule = "Cn1cc(-c2ccc3nnc(C(F)(F)c4ccc5ncccc5c4)n3n2)cn1"
recorded_result = "inactive"

[[record]]
molecule = "Cc1[nH]c(=O)c(C#N)cc1-c1ccc2nccn2c1"
recorded_result = "inactive"

[[record]]
molecule = "C[C@@H]1CN(Cc2ccc(F)cc2)[C@@H](C)CN1C(=O)c1cc2c(C(=O)C(=O)N(C)C)cn(C)c2cc1Cl"
recorded_result = "inactive"

[[record]]
molecule = "Cc1cnc(Nc2ccc(OCCN3CCCC3)cc2)nc1Nc1cccc(S(=O)(=O)NC(C)(C)C)c1"
recorded_result = "inactive"

[[record]]
molecule = "COCCNCCCn1c(C(=O)CF)c(-c2ccc(C)cc2)c2c(N)ncnc21"
recorded_result = "inactive"

